Origin of measurements: the supplement of paper PMC10567573

B1: FAM9B (parent)
chain: EDLTAKRKRMKMDKTCSKTKNKSK

variants of: B1; assay: protein stability index of a GFP-peptide fusion (GPS, HEK-293T) (PSI 1-6); higher = more stable; conditions: c terminus: a fixed tail appended;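 further: lentivirally expressed fusions sorted by FACS into six bins by GFP to DsRed ratio, PSI derived from sequencing read proportions per bin multiplied by bin number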
value.kind: protein stability index
Respond using a number only.

Lookup: Could you tell me which protein stability index is on file for R7G ?
Found: 5.54

Lookup: Could you tell me which protein stability index is on file for T19L ?
Found: 4.94

Lookup: Could you tell me which protein stability index is on file for K20V ?
Found: 4.32

Lookup: Could you tell me which protein stability index is on file for T19E ?
Found: 5.74

Lookup: Could you tell me which protein stability index is on file for M10L ?
Found: 5.34

Lookup: Could you tell me which protein stability index is on file for T19N ?
Found: 5.1

Lookup: Could you tell me which protein stability index is on file for N21P ?
Found: 4.94

Lookup: Could you tell me which protein stability index is on file for S23M ?
Found: 3.93

Lookup: Could you tell me which protein stability index is on file for K24N ?
Found: 5

Lookup: Could you tell me which protein stability index is on file for S23D ?
Found: 5.36

Lookup: Could you tell me which protein stability index is on file for K18C ?
Found: 4.96

Lookup: Could you tell me which protein stability index is on file for T19Q ?
Found: 5.08

Lookup: Could you tell me which protein stability index is on file for T19A ?
Found: 5.16

Lookup: Could you tell me which protein stability index is on file for S23F ?
Found: 4.6

Lookup: Could you tell me which protein stability index is on file for S17F ?
Found: 4.24

Lookup: Could you tell me which protein stability index is on file for T19P ?
Found: 4.89

Lookup: Could you tell me which protein stability index is on file for K6V ?
Found: 4.65

Lookup: Could you tell me which protein stability index is on file for D13Q ?
Found: 5.41

Lookup: Could you tell me which protein stability index is on file for K18R ?
Found: 4.81

Lookup: Could you tell me which protein stability index is on file for E1G ?
Found: 4.86

Lookup: Could you tell me which protein stability index is on file for C16R ?
Found: 5.47

Lookup: Could you tell me which protein stability index is on file for E1L ?
Found: 4.38

Lookup: Could you tell me which protein stability index is on file for S17I ?
Found: 5.21

Lookup: Could you tell me which protein stability index is on file for E1F ?
Found: 4.53

Lookup: Could you tell me which protein stability index is on file for R7W ?
Found: 4.33

Lookup: Could you tell me which protein stability index is on file for N21S ?
Found: 5.46

Lookup: Could you tell me which protein stability index is on file for K14S ?
Found: 5.03

Lookup: Could you tell me which protein stability index is on file for K18N ?
Found: 5.18

Lookup: Could you tell me which protein stability index is on file for C16N ?
Found: 5.46

Lookup: Could you tell me which protein stability index is on file for N21Q ?
Found: 5.51
